# Tested On: over expressed HSD17β13 in HEK293S cells (Homo sapiens (Human), UniProt Q7Z5P4)
# Sequence (Q7Z5P4 20-300): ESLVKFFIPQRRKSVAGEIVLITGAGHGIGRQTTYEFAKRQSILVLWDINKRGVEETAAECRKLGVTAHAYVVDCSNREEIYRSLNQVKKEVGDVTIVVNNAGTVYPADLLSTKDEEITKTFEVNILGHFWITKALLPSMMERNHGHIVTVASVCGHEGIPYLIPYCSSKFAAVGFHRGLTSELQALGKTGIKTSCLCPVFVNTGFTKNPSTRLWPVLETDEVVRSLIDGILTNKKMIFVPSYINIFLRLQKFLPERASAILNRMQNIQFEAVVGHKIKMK
# Procedure Text: In Vitro 17bHSD13 Cell Assay
# Type: cell-based
# Reported Conditions: HEK293S cells over expressing HSD17β13; estradiol to estrone conversion, 18 h, LC-MS/MS; read-out: 17bHSD1713 Cell assay IC50
Assay Readout: pIC50
Keep in mind that pIC50 stands for -log10 of concentration in molar terms.

| Molecule | pIC50 |
| --- | --- |
| O=C(c1cc(-c2ccc(F)c(O)c2)no1)N1CCC(c2ccccc2)C1 (stereo not shown) [Example 6] | 6.01 |

Look up pIC50 for this molecule: O=C(c1noc(-c2cc(F)c(F)c(O)c2F)n1)N1CCOC2(CCOCC2)C1 [Example 53] 5.25

Request: N#Cc1ccc2c(c1)CN(C(=O)c1noc(-c3cc(F)c(F)c(O)c3F)n1)CC2 [Example 86] 6.27

###

# Test system: human hepatocytes
# Procedure Text: Assay A: Metabolic Stability in Human Hepatocytes
# Assay type: in vitro ADME
# Reported Conditions: cryopreserved human hepatocytes, 10^6 viable cells/mL, 1 μM compound, 37° C.
Assay A: Human Heps Met Clint GMean CLint (μl/min/1E6) under 9 μl/min/1E6 gets yes (1), anything at or over 9 μl/min/1E6 gets no (0).

Look over these answered cases.
| Compound | Assigned Label |
| --- | --- |
| O=C(c1noc(-c2cc(F)c(F)c(O)c2F)n1)N1CCN(c2ccccn2)CC1 | no (0) |
| O=C(c1noc(-c2cc(F)c(F)c(O)c2F)n1)N1CCC(OCc2ccccc2)C1 (stereo not drawn) | no (0) |

Identify whether the compound O=C(c1noc(-c2cc(F)c(F)c(O)c2F)n1)N1CCOC2CCCC21 (stereo not drawn) records Assay A: Human Heps Met Clint GMean CLint (μl/min/1E6) below 9 μl/min/1E6. yes (1)

Request: O=C(c1noc(-c2cc(F)c(F)c(O)c2F)n1)N1CCO[C@H]2CCC[C@H]21 yes (1)

Request: N#Cc1c(C(=O)N2CC(F)(C3CC3)C2)noc1-c1cc(F)c(F)c(O)c1F no (0)

Request: CC(C)(C)N(Cc1ccccn1)C(=O)c1noc(-c2cc(F)c(F)c(O)c2F)c1C#N yes (1)

Request: C[C@@H]1CN(C(=O)c2noc(-c3cc(F)c(F)c(O)c3F)c2C#N)C[C@H](C)O1 yes (1)

Request: Cn1nc(C2CC2)c2c1CCN(C(=O)c1noc(-c3cc(F)c(F)c(O)c3F)c1C#N)C2 no (0)

Request: CC(C)CC1CN(C(=O)c2noc(-c3cc(F)c(F)c(O)c3F)n2)CCO1 (stereo not drawn) no (0)

Request: C[C@@H]1CN(C(=O)c2noc(-c3c(F)c(O)c(F)c(F)c3Br)n2)C[C@H](C)O1 no (0)

###

IC50 values for the compounds below.
# Tested On: over expressed HSD17β9 in HEK293S cells (Homo sapiens (Human), UniProt Q92781)
# Sequence (Q92781 whole entry): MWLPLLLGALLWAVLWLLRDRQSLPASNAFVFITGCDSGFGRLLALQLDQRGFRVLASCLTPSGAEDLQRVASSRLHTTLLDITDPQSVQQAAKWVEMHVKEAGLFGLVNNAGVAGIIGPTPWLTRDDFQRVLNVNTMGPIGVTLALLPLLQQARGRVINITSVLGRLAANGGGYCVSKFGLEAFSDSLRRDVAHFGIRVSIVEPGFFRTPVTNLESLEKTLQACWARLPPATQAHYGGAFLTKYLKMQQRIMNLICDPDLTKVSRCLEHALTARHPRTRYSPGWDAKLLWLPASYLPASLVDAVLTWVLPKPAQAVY
# Procedure Text: In Vitro 17bHSD9 Cell Assay
# Assay type: cell-based
# Reported Conditions: HEK293S cells over expressing HSD17β9; retinol to retinal conversion, 18 h, LC-MS/MS; read-out: 17bHSD9 Cell assay IC50
Write the value in µM as a bare number.

Look up IC50 for this compound: O=C(c1cc(-c2cc(F)c(F)c(O)c2F)on1)N1CC[C@H](c2ccc(Cl)cc2)C1 [Example 8] 25

Request: O=C(c1noc(-c2cc(F)c(F)c(O)c2F)n1)N1CCCCC1 [Example 44] 11.2

Request: N#Cc1ccc2c(c1)CN(C(=O)c1noc(-c3cc(F)c(F)c(O)c3F)c1C#N)CC2 [Example 29] 16.3

Request: N#Cc1c(C(=O)N2CC[C@@H](c3ccc(Cl)cc3)C2)noc1-c1cc(F)c(F)c(O)c1F [Example 21] 22.6

Request: N#Cc1cccc2c1CCN(C(=O)c1noc(-c3c(F)c(O)c(F)c(F)c3Br)n1)C2 [Example 30] 15.8

Request: O=C(c1noc(-c2cc(F)c(F)c(O)c2F)n1)N1CCOC2(CCCC2)C1 [Example 45] 4.1

Request: Cn1nc(C2CC2)c2c1CCN(C(=O)c1noc(-c3cc(F)c(F)c(O)c3F)c1C#N)C2 [Example 20] 29.4

###

The molecules below have reported pIC50 for CYP2C9 (Homo sapiens (Human)).
Keep in mind that pIC50 stands for -log10 of concentration in molar terms.

| Molecule | Assay Readout | Measurement |
| --- | --- | --- |
| O=C(c1noc(-c2cc(F)c(F)c(O)c2F)n1)N1CCN(c2ccccn2)CC1 | pIC50 | 5.14 |
| O=C(c1noc(-c2cc(F)c(F)c(O)c2F)n1)N1CCOC2(CC2)C1 | pIC50 | 5.11 |
| N#Cc1c(C(=O)N2CC[C@@H](c3ccc(Cl)cc3)C2)noc1-c1cc(F)c(F)c(O)c1F | pIC50 | 6.70 |
| N#Cc1c(C(=O)N2CCN(c3ccccn3)CC2)noc1-c1cc(F)c(F)c(O)c1F | pIC50 | 5.68 |
| N#Cc1ccc2c(c1)CN(C(=O)c1noc(-c3cc(F)c(F)c(O)c3F)n1)C2 | pIC50 | 5.23 |

Fill in the recorded pIC50 for this molecule, with CYP2C9 (Homo sapiens (Human)) as test system: Cn1nnc(-c2cnc(N3CCN(C(=O)c4noc(-c5cc(F)c(F)c(O)c5F)n4)CC3)c(Cl)c2)n1 5.52

###

# Tested On: human CB1 receptor expressed in transfected CHO cells (Homo sapiens (Human), UniProt P21554)
# Sequence (P21554 whole entry): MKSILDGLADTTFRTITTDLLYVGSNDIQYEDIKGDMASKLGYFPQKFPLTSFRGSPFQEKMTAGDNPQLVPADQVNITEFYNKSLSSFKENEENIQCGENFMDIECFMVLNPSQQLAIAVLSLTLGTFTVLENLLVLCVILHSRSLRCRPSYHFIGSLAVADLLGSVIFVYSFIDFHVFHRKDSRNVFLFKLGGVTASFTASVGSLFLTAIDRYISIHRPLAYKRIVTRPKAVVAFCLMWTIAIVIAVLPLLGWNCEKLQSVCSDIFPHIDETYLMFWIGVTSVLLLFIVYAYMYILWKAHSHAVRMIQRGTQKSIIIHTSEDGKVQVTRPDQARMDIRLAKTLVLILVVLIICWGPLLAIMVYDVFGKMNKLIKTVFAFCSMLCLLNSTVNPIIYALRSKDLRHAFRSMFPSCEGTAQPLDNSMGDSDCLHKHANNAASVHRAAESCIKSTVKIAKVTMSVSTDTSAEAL
# Procedure Text: Assay C: CB1 Agonism Assay
# Reported Conditions: agonist activity, cAMP HTRF, read-out: Assay C: CB1 Hu CHO cAMP TRF Ag CR GMean EC50
pEC50 values for the compounds below.
Keep in mind that pEC50 stands for -log10 of concentration in molar terms.

Look up pEC50 for this compound: C[C@@H]1CN(C(=O)c2cc(-c3cc(F)c(F)c(O)c3F)on2)C[C@H](C)O1 [Example 89] 4.11

###

pIC50 values for the molecules below.
# Tested On: over expressed HSD17β13 in HEK293S cells (Homo sapiens (Human), UniProt Q7Z5P4)
# Procedure Text: In Vitro 17bHSD13 Cell Assay
# Type: cell-based
# Reported Conditions: HEK293S cells over expressing HSD17β13; estradiol to estrone conversion, 18 h, LC-MS/MS; read-out: 17bHSD1713 Cell assay IC50
Keep in mind that pIC50 stands for -log10 of concentration in molar terms.

Look up pIC50 for this molecule: O=C(c1noc(-c2cc(F)c(F)c(O)c2F)n1)N1CCCCC1 6.72

###

# Tested On: over expressed HSD17β13 in HEK293S cells (Homo sapiens (Human), UniProt Q7Z5P4)
# Procedure Text: In Vitro 17bHSD13 Cell Assay
# Type: cell-based
# Reported Conditions: HEK293S cells over expressing HSD17β13; estradiol to estrone conversion, 18 h, LC-MS/MS; read-out: 17bHSD1713 Cell assay IC50
IC50 values for the molecules below.
Write the value in nM as a bare number.

Solved entries (count: 6):
| Molecule | Unit Abbrev | IC50 |
| --- | --- | --- |
| O=C(c1noc(-c2cc(F)c(F)c(O)c2F)n1)N1CC(c2ccc(F)cc2)C1 | nM | 3000 |
| O=C(c1noc(-c2cc(C(F)(F)F)[nH]c(=O)c2)n1)N1CCC(c2ccccc2)C1 (centres unmarked) | nM | 5550 |
| COc1ccccc1N1CCN(C(=O)c2noc(-c3cc(F)c(F)c(O)c3F)n2)CC1 | nM | 300 |
| O=C(c1noc(-c2cc(F)c(F)c(O)c2F)n1)N1CCOC2CCCC21 (centres unmarked) | nM | 90 |
| O=C(c1noc(-c2cc(F)c(F)c(O)c2F)n1)N1CCCC(OCc2ccccc2)C1 (centres unmarked) | nM | 1420 |
| COc1ccc(OC2CCN(C(=O)c3noc(-c4cc(F)c(F)c(O)c4F)n3)CC2)nc1 | nM | 800 |

Look up IC50 for this molecule: N#Cc1cccc2c1CCN(C(=O)c1noc(-c3c(F)c(O)c(F)c(F)c3I)n1)C2 1700

Request: O=C(c1noc(-c2cc(F)c(F)c(O)c2F)n1)N1CCOC2(CC2)C1 220

###

# Tested On: over expressed HSD17β13 in HEK293S cells (Homo sapiens (Human), UniProt Q7Z5P4)
# Procedure Text: In Vitro 17bHSD13 Cell Assay
# Type: cell-based
# Reported Conditions: HEK293S cells over expressing HSD17β13; estradiol to estrone conversion, 18 h, LC-MS/MS; read-out: 17bHSD1713 Cell assay IC50
IC50 under 1000 nM gets T, anything at or over 1000 nM gets F.

| Compound | Tested On | Assigned Label |
| --- | --- | --- |
| N#Cc1ccc(N2CCN(C(=O)c3noc(-c4cc(F)c(F)c(O)c4F)n3)CC2)cc1 [Example 83] | over expressed HSD17β13 in HEK293S cells (Homo sapiens (Human), UniProt Q7Z5P4) | F |
| O=C(c1noc(-c2cc(F)c(F)c(O)c2F)n1)N1CCO[C@@H]2CCC[C@H]21 [Example 114] | over expressed HSD17β13 in HEK293S cells (Homo sapiens (Human), UniProt Q7Z5P4) | T |
| CC(C)C1COCCN1C(=O)c1noc(-c2cc(F)c(F)c(O)c2F)n1 (centres unmarked) [Example 35] | over expressed HSD17β13 in HEK293S cells (Homo sapiens (Human), UniProt Q7Z5P4) | F |
| C[C@@H]1CN(C(=O)c2noc(-c3cc(F)c(F)c(O)c3F)n2)[C@H](C)CO1 [Example 50] | over expressed HSD17β13 in HEK293S cells (Homo sapiens (Human), UniProt Q7Z5P4) | T |
| CC(C)CC1CN(C(=O)c2noc(-c3cc(F)c(F)c(O)c3F)n2)CCO1 (centres unmarked) [Example 47] | over expressed HSD17β13 in HEK293S cells (Homo sapiens (Human), UniProt Q7Z5P4) | T |

Identify whether the compound N#Cc1cccc(C2CN(C(=O)c3noc(-c4cc(F)c(F)c(O)c4F)n3)CCN2)c1 (centres unmarked) [Example 42] records IC50 below 1000 nM. F

Request: O=C(c1noc(-c2cc(F)c(F)c(O)c2F)n1)N1CCOCC1 [Example 39] F

Request: N#Cc1ccc2c(c1)CCN(C(=O)c1noc(-c3cc(F)c(F)c(O)c3F)n1)C2 [Example 31] F
